experiment: AUC(0 to infinity) in mouse at 1 mg/kg, iv administered as single dose; format: ADME, organism-based; details: in vivo
reported.metric: AUC(0-inf) (ng·h/mL)

• C=CC(=O)Nc1cccc(Oc2nc(Nc3ccc(N4CCN(C)CC4)cc3OC)ncc2Cl)c1 = 976

###

experiment: Half-life in mouse at 10 mg/kg, po administered as single dose; assay type: ADME, organism-based; conditions: in vivo
reported.metric: half-life (h)

• C=CC(=O)Nc1cccc(Oc2nc(Nc3ccc(N4CCN(C)CC4)cc3OC)ncc2Cl)c1 = 2.46

###

assay: MRT in mouse at 10 mg/kg, po administered as single dose; assay type: ADME, organism-based; settings: in vivo
reported.metric: MRT (h)

• C=CC(=O)Nc1cccc(Oc2nc(Nc3ccc(N4CCN(C)CC4)cc3OC)ncc2Cl)c1 = 3.98

###

assay: AUC(0 to t) in mouse at 10 mg/kg, po administered as single dose; assay type: ADME, organism-based; settings: in vivo
reported.metric: AUC(0-t) (ng·h/mL)

* C=CC(=O)Nc1cccc(Oc2nc(Nc3ccc(N4CCN(C)CC4)cc3OC)ncc2Cl)c1 | 2390

###

test: Drug concentration in mouse plasma at 10 mg/kg, po administered as single dose and measured after 24 hrs; format: ADME, organism-based
reported.metric: concentration at 24 h (ng/mL)

* C=CC(=O)Nc1cccc(Oc2nc(Nc3ccc(N4CCN(C)CC4)cc3OC)ncc2Cl)c1 | 0.82

###

experiment: Drug concentration in mouse plasma at 1 mg/kg, iv administered as single dose and measured after 0.08 hrs; format: ADME, organism-based
reported.metric: concentration at 0.08 h (ng/mL)

* C=CC(=O)Nc1cccc(Oc2nc(Nc3ccc(N4CCN(C)CC4)cc3OC)ncc2Cl)c1 | 1130

###

Biological target: Cyclin-G-associated kinase (Homo sapiens, UniProt O14976)
Sequence (O14976 whole entry): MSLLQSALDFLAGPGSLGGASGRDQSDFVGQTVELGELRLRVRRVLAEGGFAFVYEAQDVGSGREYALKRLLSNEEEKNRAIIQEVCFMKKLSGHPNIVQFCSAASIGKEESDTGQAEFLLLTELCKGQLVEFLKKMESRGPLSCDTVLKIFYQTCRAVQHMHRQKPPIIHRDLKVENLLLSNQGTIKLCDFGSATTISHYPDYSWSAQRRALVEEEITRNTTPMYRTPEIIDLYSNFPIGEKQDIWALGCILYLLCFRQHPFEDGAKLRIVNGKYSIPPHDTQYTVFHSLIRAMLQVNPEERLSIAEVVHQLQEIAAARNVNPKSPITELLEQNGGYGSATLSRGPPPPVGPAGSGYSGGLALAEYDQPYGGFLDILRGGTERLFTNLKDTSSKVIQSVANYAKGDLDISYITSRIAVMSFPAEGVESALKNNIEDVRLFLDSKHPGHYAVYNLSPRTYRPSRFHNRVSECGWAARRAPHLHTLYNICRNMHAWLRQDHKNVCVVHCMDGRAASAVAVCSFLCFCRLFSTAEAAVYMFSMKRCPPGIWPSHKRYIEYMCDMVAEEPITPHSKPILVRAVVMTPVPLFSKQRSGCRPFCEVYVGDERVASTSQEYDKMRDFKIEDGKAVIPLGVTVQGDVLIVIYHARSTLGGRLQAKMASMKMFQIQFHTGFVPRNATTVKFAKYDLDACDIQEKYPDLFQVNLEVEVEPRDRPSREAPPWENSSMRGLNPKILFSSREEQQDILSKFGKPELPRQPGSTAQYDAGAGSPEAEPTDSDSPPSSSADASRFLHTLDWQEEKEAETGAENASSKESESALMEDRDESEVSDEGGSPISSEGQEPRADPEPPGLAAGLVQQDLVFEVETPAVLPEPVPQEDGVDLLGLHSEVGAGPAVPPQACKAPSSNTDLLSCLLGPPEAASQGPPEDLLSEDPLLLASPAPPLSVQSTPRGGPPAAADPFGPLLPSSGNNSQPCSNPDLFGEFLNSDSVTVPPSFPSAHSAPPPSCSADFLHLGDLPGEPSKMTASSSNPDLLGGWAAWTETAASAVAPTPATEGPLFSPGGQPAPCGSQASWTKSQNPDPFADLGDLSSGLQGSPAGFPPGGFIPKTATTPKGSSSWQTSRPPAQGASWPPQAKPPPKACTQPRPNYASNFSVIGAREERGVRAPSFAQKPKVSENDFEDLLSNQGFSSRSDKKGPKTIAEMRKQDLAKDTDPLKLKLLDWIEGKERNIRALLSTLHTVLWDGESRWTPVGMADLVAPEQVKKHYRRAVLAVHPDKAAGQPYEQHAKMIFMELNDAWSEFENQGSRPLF
pKd: −log10 of the molar value.
reported.metric: pKd

* C=CC(=O)Nc1cccc(Oc2nc(Nc3ccc(N4CCN(C)CC4)cc3OC)ncc2Cl)c1 | 7.04

The values you see were collected from ChEMBL document CHEMBL5705889.
